Lab note: log10 of IC50 readings collected with UniProt:P21396 for the following compounds.
Sequence (P21396 whole entry): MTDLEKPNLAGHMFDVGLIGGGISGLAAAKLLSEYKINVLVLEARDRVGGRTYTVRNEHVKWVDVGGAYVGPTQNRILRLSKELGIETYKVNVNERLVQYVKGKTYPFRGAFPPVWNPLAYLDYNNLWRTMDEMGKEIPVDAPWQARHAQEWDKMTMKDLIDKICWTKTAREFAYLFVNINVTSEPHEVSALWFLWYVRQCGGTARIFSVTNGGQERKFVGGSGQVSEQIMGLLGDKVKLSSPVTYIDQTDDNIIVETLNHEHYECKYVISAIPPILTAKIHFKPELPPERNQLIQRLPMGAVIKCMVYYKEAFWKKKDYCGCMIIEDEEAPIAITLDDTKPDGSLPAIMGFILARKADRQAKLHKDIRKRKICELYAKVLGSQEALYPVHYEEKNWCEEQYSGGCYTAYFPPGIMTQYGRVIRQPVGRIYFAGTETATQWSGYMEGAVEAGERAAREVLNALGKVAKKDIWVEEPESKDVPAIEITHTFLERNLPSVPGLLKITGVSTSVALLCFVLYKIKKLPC
A value of 2 here means IC50 of 100 in nM, since values are log10.

Example compounds with recorded log10 of IC50:
COC(=O)CCCCCNC(=O)C(=O)c1ccccc1NC(C)=O	1.83
COC(=O)CCNC(=O)C(=O)c1ccccc1NC(C)=O	1.52
COC(=O)[C@H](Cc1ccccc1)NC(=O)c1ccc(NC(=O)C(=O)c2ccccc2NC(C)=O)cc1	1.56
COC(=O)CCCCCNC(=O)c1ccc(NC(=O)C(=O)c2ccccc2NC(C)=O)cc1	1.97
COC(=O)C[C@H](NC(=O)C(=O)c1ccccc1NC(C)=O)C(=O)OC	1.76

Find the measured log10 of IC50 of "COC(=O)[C@H](C)NC(=O)c1ccc(NC(=O)C(=O)c2ccccc2NC(C)=O)cc1" with UniProt:P21396 as test system. 1.56

# return log10 of IC50 for "CCOC(=O)c1ccc(NC(=O)C(=O)c2ccccc2NC(C)=O)cc1" , test system: UniProt:P21396 1.92

// output log10 of IC50; input "COC(=O)[C@@H](NC(=O)c1ccc(NC(=O)C(=O)c2ccccc2NC(C)=O)cc1)C(C)C" ; system UniProt:P21396 0.45

System UniProt:P21396. Read-out log10 of IC50. Item "COC(=O)C(C)(C)NC(=O)c1ccc(NC(=O)C(=O)c2ccccc2NC(C)=O)cc1" . Report value. 1.63

State log10 of IC50 on UniProt:P21396. Entry: "COC(=O)CCNC(=O)c1ccc(NC(=O)C(=O)c2ccccc2NC(C)=O)cc1" 1.26

Consider the compound "CC(=O)N1C(=O)C(=O)c2ccccc21" tested on UniProt:P21396; state its log10 of IC50. 1.75

###

A collection of molecules and their measured Selectivity Index
Test: Selectivity index, ratio of IC50 for MAO-B in bovine brain mitochondria to IC50 for MAO-A in rat liver mitochondria
Please give only the number in your answer, with no unit.

Record excerpt, results attached:
CC(=O)N1C(=O)C(=O)c2ccccc21	6780
COC(=O)[C@H](Cc1ccccc1)NC(=O)c1ccc(NC(=O)C(=O)c2ccccc2NC(C)=O)cc1	7770

Find the measured Selectivity Index of "CCOC(=O)c1ccc(NC(=O)C(=O)c2ccccc2NC(C)=O)cc1" and report it. 11900

Look up and state reported Selectivity Index for "COC(=O)CCCCCNC(=O)C(=O)c1ccccc1NC(C)=O" 8670

Consider the molecule "COC(=O)[C@H](C)NC(=O)c1ccc(NC(=O)C(=O)c2ccccc2NC(C)=O)cc1" and give its recorded Selectivity Index. 20300

Look up Selectivity Index of "COC(=O)CCCNC(=O)C(=O)c1ccccc1NC(C)=O" and report it. 15300

Read off the recorded Selectivity Index for "COC(=O)C(C)(C)NC(=O)c1ccc(NC(=O)C(=O)c2ccccc2NC(C)=O)cc1" 8370

Find the measured Selectivity Index of "COC(=O)CCNC(=O)c1ccc(NC(=O)C(=O)c2ccccc2NC(C)=O)cc1" and report it. 29400

###

Tested on: Mus musculus
Test: Toxicity in mouse up to dosed through parenteral route
Conditions: in vivo
EXPERIMENTAL_ENDPOINT: Activity

COC(=O)CCNC(=O)c1ccc(NC(=O)C(=O)c2ccccc2NC(C)=O)cc1	Non-toxic
COC(=O)[C@H](C)NC(=O)c1ccc(NC(=O)C(=O)c2ccccc2NC(C)=O)cc1	Non-toxic
COC(=O)[C@@H](NC(=O)c1ccc(NC(=O)C(=O)c2ccccc2NC(C)=O)cc1)C(C)C	Non-toxic
COC(=O)CCNC(=O)C(=O)c1ccccc1NC(C)=O	Non-toxic

Origin of the recorded values: ChEMBL document CHEMBL3576764
